B1: KLHDC10 (parent)
chain: CPIIRIPNRFLRGHRPPPARSGHR

Variants of: B1
Test: protein stability index of a GFP-peptide fusion (GPS, HEK-293T) (PSI 1-6); higher = more stable;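 note: lentivirally expressed fusions sorted by FACS into six bins by GFP to DsRed ratio, PSI derived from sequencing read proportions per bin multiplied by bin number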
Settings: c terminus: a fixed tail appended
Listing: protein stability index of selected variants
Reply with the value as a number alone.

Solved entries (count: 8):
CPIIRIPNRFLRGHRMPPARSGHR [P16M]    2.33
CPIIRIYNRFLRGHRPPPARSGHR [P7Y]    2.11
CPIIRIPNRFLRGHYPPPARSGHR [R15Y]    1.51
CPIIRIPNRFLRGHRPPPARNGHR [S21N]    2.25
CPIIRIPNRFLRGHRPPPAWSGHR [R20W]    1.75
CPIIRIPNRFLRGHRPPPARSTHR [G22T]    2.39
CPIIRIPNRFLRGHRPPPARSGHA [R24A]    2.37
CPIIRIPNRFLRGHRPPPARSGVR [H23V]    1.69

Prompt: Which protein stability index value is on record for CPIIRIPARFLRGHRPPPARSGHR [N8A] ?
Completion: 1.46

Prompt: Could you share which protein stability index value was measured for CPIIRIPNRFLKGHRPPPARSGHR [R12K] ?
Completion: 2.09

Prompt: Dear colleague, I am looking for the recorded protein stability index of the following variant: CPIIRIPNRFLRGHGPPPARSGHR [R15G]
Completion: 1.69

Prompt: If you can, please state the reported protein stability index value of CPIIRIPRRFLRGHRPPPARSGHR [N8R] .
Completion: 2.54

Prompt: Give its protein stability index value. Item: CPIIRIPNRFLRGHRPPPARSGNR [H23N]
Completion: 2.43

Prompt: Quick one: protein stability index for CPIIRIPTRFLRGHRPPPARSGHR [N8T] ?
Completion: 2.52

Prompt: Look up protein stability index for this variant: CPIIRSPNRFLRGHRPPPARSGHR [I6S]
Completion: 2.04

Prompt: Can you share its protein stability index? I mean this variant: CPIIRIPNRFLRGHRPPPARSGAR [H23A]
Completion: 1.85
